B1: USP39 (parent)
chain: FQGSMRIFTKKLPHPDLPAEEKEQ

# Variants of: B1
# METHOD SUMMARY: protein stability index of a GFP-peptide fusion (GPS, HEK-293T) (PSI 1-6); higher = more stable;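 further: lentivirally expressed fusions sorted by FACS into six bins by GFP to DsRed ratio, PSI derived from sequencing read proportions per bin multiplied by bin number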
# ASSAY SETUP: c terminus: a fixed tail appended

>  <POLYMER SEQUENCE>
FQGSMRIFTKKLPHPDLPAEDKEQ [E21D]

>  <protein stability index>
1.73

$$$$
>  <POLYMER SEQUENCE>
FQGSMRIFTCKLPHPDLPAEEKEQ [K10C]

>  <protein stability index>
3.86

$$$$
>  <POLYMER SEQUENCE>
CQGSMRIFTKKLPHPDLPAEEKEQ [F1C]

>  <protein stability index>
4.82

$$$$
>  <POLYMER SEQUENCE>
FQGSMRIFTKKLPHPDLPAEEKET [Q24T]

>  <protein stability index>
2.1

$$$$
>  <POLYMER SEQUENCE>
FQGSMRIFTKKLPHPDLPAEQKEQ [E21Q]

>  <protein stability index>
2.08

$$$$
>  <POLYMER SEQUENCE>
TQGSMRIFTKKLPHPDLPAEEKEQ [F1T]

>  <protein stability index>
4.86

$$$$
>  <POLYMER SEQUENCE>
FQGMMRIFTKKLPHPDLPAEEKEQ [S4M]

>  <protein stability index>
4.08

$$$$
>  <POLYMER SEQUENCE>
FQGSMRIFTKKLDHPDLPAEEKEQ [P13D]

>  <protein stability index>
1.72

$$$$
>  <POLYMER SEQUENCE>
FQGSMRIFTKKLPHTDLPAEEKEQ [P15T]

>  <protein stability index>
1.93

$$$$
>  <POLYMER SEQUENCE>
FQGSMRIFTKKLPHPDLPAEEAEQ [K22A]

>  <protein stability index>
2.23

$$$$
>  <POLYMER SEQUENCE>
FQGSMRIFTKKLPHPDNPAEEKEQ [L17N]

>  <protein stability index>
2.26

$$$$

Taken from the supplement of paper PMC10567573.
